Each item that follows carries a reported LD50.
experiment: acute toxicity in the mouse; conditions: in vivo, sc, S.C. (subcutaneous)
Counter-ions that a name gives are not always drawn.

COMPOUND	OBS_VALUE
CCS(=O)(=O)c1cc(OC)c(OC)c(C(=O)NCC2CCCN2CC2CC2)c1 (stereo not drawn) [Example 16, hydrochloride]	595 to 597 mg/kg
CCS(=O)(=O)c1cc(C(=O)NCC2CCCN2CC2CCCCC2)c(OC)cc1N (stereo not drawn)	336 to 342 mg/kg

Given item CCS(=O)(=O)c1cc(C(=O)NCC2CCCN2CC2CC2)c(OC)cc1N (stereo not drawn) , the value recorded as its LD50 is 380 to 396 mg/kg
